A collection of compounds and their measured melting point

These solved cases illustrate the format of a correct answer.
CCN(CC)C(=O)c1ccc2ccccc2c1-c1ccc(N(C)C)cc1    140 to 141 °C
O=C(NS(=O)(=O)NC(=O)OCc1ccccc1)OCc1ccccc1    139 to 141 °C
O=C(O)c1ccc(C(=O)NS(=O)(=O)c2ccc(Cl)cc2)cc1    285 to 287 °C
COC(=O)c1[nH]c2cc(C)c(C)cc2c1-c1ccc(O)cc1    247 to 248 °C
CCc1oc(-c2ccc(C(F)(F)F)cc2)cc1CCC(=O)O    94 to 95 °C
Nc1ccccc1C(=O)C1CC1    46 to 48 °C

Task: Could you tell me which melting point is on file for `CON1C=C2N=NC3=C(N2C1)N(c1ccccc1Cl)CC(C)=C3` ?
Output: 198 to 200 °C

Task: Then this compound: `CCNc1nc(Cl)c(C#N)c(NC(C)C)n1`
Output: 160 to 165 °C

These entries and their values trace back to a melting point compilation (Tetko et al.; mined from patent text by program, amines drawn as free bases though some values may be those of a salt).
